src = PubChem BioAssay AID1918930

Test system: 233499-124-R-J3-PDC complex spheroid viability, % test/control
EXPERIMENT_NOTES: Anticancer human tumor 233499-124-R-J3-PDC patient-derived colon adenocarcinoma cell line growth inhibition; active = viability on the fitted dose curve at most 10% of control; inactive = the rest
CONDITION_INFO: second compound 0.316 µM; first compound 0.00316 µM
// allowed return values: active, inactive

Illustrative cases are given below, each with its answer.
Nc1ncn(C2CC(O)C(CO)O2)c(=O)n1 (stereo not drawn) + NC1CCC(NC2CC2c2ccccc2)CC1    inactive
O=C(C=Cn1cnc(-c2cc(C(F)(F)F)cc(C(F)(F)F)c2)n1)NNc1cnccn1 + NC1CC1c1ccc(-c2cccc(O)c2)cc1    inactive
CC[C@@]1(O)C(=O)OCc2c1cc1n(c2=O)Cc2cc3c(CN(C)C)c(O)ccc3nc2-1 + NC1CCC(NC2CC2c2ccccc2)CC1    inactive
CC(C)CC(NC(=O)CNC(=O)c1cc(Cl)ccc1Cl)B1OC(=O)CC(CC(=O)O)(C(=O)O)O1 (stereo not drawn) + NC1CCC(NC2CC2c2ccccc2)CC1    inactive
CC[C@@]1(O)C(=O)OCc2c1cc1n(c2=O)Cc2cc3c(CN(C)C)c(O)ccc3nc2-1 + NC1CC1c1ccc(-c2cccc(O)c2)cc1    inactive

Inquiry: Returns: the outcome recorded for CC1COCCN1c1cc(-c2ccnn2C)c2ccnc(-c3ccn[nH]3)c2n1 (stereo not drawn) + NC1CC1c1ccc(-c2cccc(O)c2)cc1 in this assay.
Reply text: inactive

Inquiry: Query: recorded result category for Cn1ncnc1C1c2n[nH]c(=O)c3cc(F)cc(c23)NC1c1ccc(F)cc1 (stereo not drawn) + NC1CC1c1ccc(-c2cccc(O)c2)cc1 in this test
Reply text: inactive

Inquiry: Lab log entry: CC(C)CC(NC(=O)C(Cc1ccccc1)NC(=O)c1cnccn1)B(O)O (stereo not drawn) + NC1CC1c1ccc(-c2cccc(O)c2)cc1 — outcome as called in the assay?
Reply text: active

====

Exercise: state measured viability, T/C for each of the molecules provided.
Test system: 233499-124-R-J3-PDC complex spheroid viability, % test/control
EXPERIMENT_NOTES: Anticancer human tumor 233499-124-R-J3-PDC cell line growth inhibition;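 note: spheroids exposed to agents for one week before readout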
CONDITION_INFO: second compound 0.1 µM; first compound 0.1 µM; hits give low values
Numbers only, in %.

Below: 5 molecules and their reported viability, T/C.
CC(C)CC(NC(=O)CNC(=O)c1cc(Cl)ccc1Cl)B1OC(=O)CC(CC(=O)O)(C(=O)O)O1 (centres undefined) + NC1CC1c1ccc(-c2cccc(O)c2)cc1    0.15
CC1COCCN1c1cc(C2(S(C)(=N)=O)CC2)nc(-c2ccnc3[nH]ccc23)n1 (centres undefined) + NC1CCC(NC2CC2c2ccccc2)CC1    91.5
COc1ccc([C@@H](O)c2cc(-c3ncnc4cc(N5CCOCC5)ccc34)c(F)cc2Cl)nn1 + NC1CCC(NC2CC2c2ccccc2)CC1    82.3
CC1(C)CCC(CN2CCN(c3ccc(C(=O)NS(=O)(=O)c4ccc(NCC5CCOCC5)c([N+](=O)[O-])c4)c(Oc4cnc5[nH]ccc5c4)c3)CC2)=C(c2ccc(Cl)cc2)C1 + NC1CC1c1ccc(-c2cccc(O)c2)cc1    109
Nc1ncn(C2CC(O)C(CO)O2)c(=O)n1 (centres undefined) + NC1CCC(NC2CC2c2ccccc2)CC1    69

Please go through the list and note viability, T/C for each molecule.
1. CC(C)c1c(-c2ccccc2)nc2c(C#N)c[nH]n2c1=O + NC1CC1c1ccc(-c2cccc(O)c2)cc1
2. O=C(C=Cn1cnc(-c2cc(C(F)(F)F)cc(C(F)(F)F)c2)n1)NNc1cnccn1 + NC1CCC(NC2CC2c2ccccc2)CC1
3. CC(C)CC(NC(=O)C(Cc1ccccc1)NC(=O)c1cnccn1)B(O)O (centres undefined) + NC1CCC(NC2CC2c2ccccc2)CC1
4. CC(C)CC(NC(=O)CNC(=O)c1cc(Cl)ccc1Cl)B1OC(=O)CC(CC(=O)O)(C(=O)O)O1 (centres undefined) + NC1CCC(NC2CC2c2ccccc2)CC1

Reply text:
[117, 49.5, 2.95, 5.21]

Provide each entry's viability, T/C from the list below.
1. CC(C)c1c(-c2ccccc2)nc2c(C#N)c[nH]n2c1=O + NC1CCC(NC2CC2c2ccccc2)CC1
2. O=C(c1cc(Cc2n[nH]c(=O)c3ccccc23)ccc1F)N1CCN(C(=O)C2CC2)CC1 + NC1CC1c1ccc(-c2cccc(O)c2)cc1
3. O=C(c1cc(Cc2n[nH]c(=O)c3ccccc23)ccc1F)N1CCN(C(=O)C2CC2)CC1 + NC1CCC(NC2CC2c2ccccc2)CC1
4. COc1cc(Nc2ncc3c(n2)-c2ccc(Cl)cc2C(c2c(F)cccc2OC)=NC3)ccc1C(=O)O + NC1CC1c1ccc(-c2cccc(O)c2)cc1
5. CC1COCCN1c1cc(-c2ccnn2C)c2ccnc(-c3ccn[nH]3)c2n1 (centres undefined) + NC1CC1c1ccc(-c2cccc(O)c2)cc1

Reply text:
98.5
92.2
107
72.5
39.4
